The measurements presented in this section are drawn from paper PMC11931385.

The reader will find reported Kd values listed item by item below.
# TEST TARGET: T1, Rb^P E675Q (human, UniProt P06400 380-788, E675Q)
# T1 construct: also called variant 56
# T1 sequence (looked up): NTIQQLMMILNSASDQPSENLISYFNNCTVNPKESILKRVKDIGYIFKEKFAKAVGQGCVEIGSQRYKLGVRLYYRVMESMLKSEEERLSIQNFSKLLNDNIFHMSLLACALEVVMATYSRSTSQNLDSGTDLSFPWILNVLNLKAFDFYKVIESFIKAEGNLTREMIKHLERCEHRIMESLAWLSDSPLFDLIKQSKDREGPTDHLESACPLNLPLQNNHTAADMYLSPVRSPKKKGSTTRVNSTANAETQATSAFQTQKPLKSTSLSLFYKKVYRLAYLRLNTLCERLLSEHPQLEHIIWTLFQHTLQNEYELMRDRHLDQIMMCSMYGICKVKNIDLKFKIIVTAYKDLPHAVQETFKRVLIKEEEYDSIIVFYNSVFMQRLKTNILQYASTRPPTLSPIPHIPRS
# ASSAY INFO: fluorescence polarisation; 25 °C; unlabeled Rb^P titrated against 1.5 nM TMR-E2F1^TD or 7.5 nM TMR-E7^LxCxE; 25 mM Tris pH 8.0, 200 mM NaCl, 1 mM DTT, 0.1% Tween-20; 2 min incubation; quadratic fit; apparent Kd for the variants, Kd for WT
# ASSAY SETUP: both partners purified
No end group written: not given here. TMR = tetramethyl rhodamine dye
The response must be a number in nM with no trailing unit.

DLYCYEQLN (also: TMR label, position not given here, source: synthetic peptide, bought: GenScript) [TMR-E7^LxCxE, LxCxE peptide of the E7 oncoprotein from HPV]; 20

Field: next binder
# Kd (binder: {TMR}-GEGIRDLFDCDFGDLTPLD (also called E2F^TD; source: synthetic peptide, bought: GenScript) [TMR-E2F1^TD, peptide of the E2F1 transactivation domain] ) is 35
